Values were extracted from patent US10696693B2.

Tested on: TGF-β
ASSAY: AlphaScreen SureFire p-SMAD3 (Ser423/425) assay, TGF-β-stimulated cells
Type: cell-based
DETAILS: Mus musculus, MPC-11, read-out: TGF-β: inhibition of TGF-β signaling, TGF-β pSMAD (MPC-11), p-SMAD3 (Ser423/425) AlphaScreen in cell lysate, TGF-β stimulation
pIC50: −log10 of the molar value.
Listed compounds paired with reported pIC50

> print(dat)
                                   compound  measured.property  reported.result
1  Fc1ccc(-c2nc3n(c2-c2ccc4nccnc4c2)CCC3)cc1 [Compound 178]              pIC50           < 6.00

Ask: Looking for the measured pIC50 of Fc1cc(F)c(F)c(-c2nc3n(c2-c2ccc4ncc(-n5ccnc5)nc4c2)CCC3)c1 [Compound 359] , can you help?
Reply: 6.00 to 7.00

Ask: Query (compound): Cc1c(F)ccc(-c2nc3n(c2-c2ccc4ncnn4c2)CCC3)c1C [Compound 73] ; field requested: pIC50
Reply: < 6.00

Ask: Recorded pIC50 for COCCOc1cnc2ccc(-c3c(-c4cc(C)ccc4F)nc4n3CCC4)cc2n1 [Compound 358] , please?
Reply: 6.00 to 7.00

Ask: For the compound Fc1ccc(-c2nc3n(c2-c2ccc4[nH]ncc4c2)CCC3)cc1 [Compound 175] , what pIC50 is on record?
Reply: 6.00 to 7.00

* * *

Tested on: TGF-β
ASSAY: AlphaScreen SureFire p-SMAD3 (Ser423/425) assay, TGF-β-stimulated cells
Type: cell-based
DETAILS: Mus musculus; p-SMAD3 (Ser423/425) AlphaScreen in cell lysate; MPC-11; TGF-β stimulation; read-out: TGF-β: inhibition of TGF-β signaling, TGF-β pSMAD (MPC-11)
pIC50: −log10 of the molar value.
MEASURED_PROPERTY: pIC50

> print(dat)
                              smiles.record  reported.result
1  Fc1ccc(-c2nc3occn3c2-c2ccc3ncccc3c2)cc1F     6.00 to 7.00
2  Fc1cc(-c2nc3n(c2-c2ccc4ncnn4c2)CCC3)cc(F)c1F           < 6.00
3  Cc1ccc(Cl)cc1-c1nc2n(c1-c1ccc3ncnn3c1)CCC2     6.00 to 7.00
4  Fc1cc(-c2nc3n(c2-c2ccc4ncccc4c2)CCC3)c(F)cc1Cl           < 6.00
5  Fc1ccc(Cl)cc1-c1nc2n(c1-c1ccc3ncccc3c1)CCC2           > 7.30

Please look at the following compound next.
Ask: Which value of pIC50 has been reported for Cc1c(F)ccc(-c2nc3n(c2-c2ccc4ncccc4c2)CCC3)c1F in the records?
Reply: < 6.00

* * *

System: TGF-β
ASSAY: AlphaScreen SureFire p-SMAD3 (Ser423/425) assay, TGF-β-stimulated cells
Format: cell-based
DETAILS: Mus musculus; p-SMAD3 (Ser423/425) AlphaScreen in cell lysate; MPC-11; TGF-β stimulation; read-out: TGF-β: inhibition of TGF-β signaling, TGF-β pSMAD (MPC-11)
MEASURED_PROPERTY: IC50

Guide cases for IC50, answers given:
> print(dat)
                                   molecule  reported.result
1  Cc1cc(-c2nc3n(c2-c2ccc4nccn4c2)CCC3)c(Cl)cc1F [Compound 68]   100 to 1000 nM
2  Cc1cc(-c2nc3n(c2-c2ccc4[nH]ncc4c2)CCC3)cc(C)c1Cl [Compound 243]        > 1000 nM
3  Fc1ccccc1-c1nc2n(c1-c1ccc3nccn3c1)CCC2 [Compound 8]   100 to 1000 nM
4  c1ccc(C2=C(c3ccc4cn[nH]c4c3)C3CCCC3=N2)nc1 (stereo not drawn) [Compound 366]     50 to 100 nM

Ask: Could you tell me which IC50 is on file for CC(=O)N1c2nc(-c3cc(F)cc(F)c3F)c(-c3ccc4ncnn4c3)n2CC1C(=O)O (stereo not drawn) [Compound 119] ?
Reply: < 50 nM

Ask: Give its IC50 value. Item: Fc1ccc(-c2nc3occn3c2-c2ccc3ncccc3c2)c(F)c1F [Compound 162]
Reply: 100 to 1000 nM

Ask: Look up IC50 for this molecule: Cc1cc(-c2nc3n(c2-c2ccc4nccn4c2)CCC3)cc(C)c1F [Compound 43]
Reply: > 1000 nM
